These data points were gathered from PubChem BioAssay (NCI).

Please go through the items and note down their growth inhibition.
# experimental-protocol: NCI Yeast Anticancer Drug Screen. Data for the cln2 rad14 strain (AID 165);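 further: 0% = growth equal to vehicle treated cultures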
# run-conditions: S. cerevisiae cln2 rad14 strain, at 50.0 µM, hits give high values
Compounds without any hit were thinned out: in the full panel of roughly 79,000, 15% have a hit.
Answers are plain numbers, in %.

- compound: "CCOP(=O)(OCC)C([O][Sb]([O]CC(C)Cl)[O]CC(C)Cl)c1ccc(OC)cc1 (stereo not drawn)"
  assay-result: -2.45
- compound: "Cc1ccc(C(=O)N(Cc2ccccc2)Cc2ccccc2)cc1N=NN(C)C"
  assay-result: -8.2
- compound: "CC(C)=C(OC(=O)c1ccccc1)C(C)(CC(C)(C)C)C(C)(C)C (stereo not drawn)"
  assay-result: -100

Hi there! I need growth inhibition for each item below, if you can.
1. CC1(C)CCC(C)(C)c2cc(C(=O)O)ccc21
2. COC(=O)C1=C(NC(=O)Nc2ccc(OC)cc2)OC(C)(C)C1c1ccc(Cl)cc1 (stereo not drawn)
3. COc1ccc2nc(-c3ccccc3)c(=O)[nH]c2c1
4. Cc1c(C)c(C)c(CNNC(=S)Nc2cccc(Cl)c2)c(C)c1C

**Result**
5.4
3.75
12.6
-3.45

Hi there! I need growth inhibition for each item below, if you can.
1. CC(C)=CC(=O)N1CCN(C(=O)C=C(C)C)CC1
2. CC(=O)Oc1cc2c(cc1C(NC(N)=O)c1ccc3c(c1)OCO3)OCO2 (stereo not drawn)
3. CN(C)C(=O)CCOc1cccc2ccccc12
4. NC(=O)SCC(=O)Nc1ccc2cccc3c2c1CC3
5. CC1(C)CNCC2(C)OCCCOC3(C)CNCC(C)(C)NC(=O)C(C)(CNCC(C)(C)NC3=O)OCCCOC(C)(CNCC(C)(C)NC2=O)C(=O)N1
6. COc1cc2c3cc1Oc1c(OC)c(OC)cc4c1C(Cc1ccc(O)c(c1)Oc1ccc(cc1)CC3N(C)CC2)CN(C)C4 (stereo not drawn)

**Result**
[18.8, -11.2, -69.5, 61.6, 16.1, -17.4]

====

# experimental-protocol: NCI Yeast Anticancer Drug Screen. Data for the bub3 strain (AID 167)
# run-conditions: S. cerevisiae bub3 mutant strain, at 50.0 µM, hits give high values
Compounds without any hit were thinned out: in the full panel of roughly 79,000, 15% have a hit.
measurement-name: growth inhibition (%)
One number for each entry, in %.

Illustrative cases are given below, each with its answer.
- compound: "OC12c3ccccc3C1(N1CCOCC1)CCCCC21OCCCO1 (stereo unspecified)"
  measurement-name: "growth inhibition"
  readout-units: "%"
  assay-result: -23.5
- compound: "CC1(c2ccccc2)N=C(C(N)=O)c2[nH]cnc2N1 (stereo unspecified)"
  measurement-name: "growth inhibition"
  readout-units: "%"
  assay-result: 8.7
- compound: "COC(=O)CC1(O)C=C(C)C(=O)c2ccccc21 (stereo unspecified)"
  measurement-name: "growth inhibition"
  readout-units: "%"
  assay-result: 25.2
- compound: "O=C1Nc2n[nH]c(=S)n2NC12c1ccccc1-c1ccccc12"
  measurement-name: "growth inhibition"
  readout-units: "%"
  assay-result: -21.7
- compound: "O=C1c2ccccc2C(=O)c2c1cc1c(c2O)OCO1"
  measurement-name: "growth inhibition"
  readout-units: "%"
  assay-result: -38

Now for a further compound.
**Query** Given the entry O=[N+]([O-])c1ccc(N/N=C2/CC(c3ccccc3)C(c3ccccc3)=C2Cl)c([N+](=O)[O-])c1 (stereo unspecified) , report its measured growth inhibition.
**Result** -1.75
